Just for reference, BindingDB's records for doi:10.1016/j.bmcl.2004.12.084 is where these values come from.

target-desc: Peroxisome proliferator-activated receptor gamma (Homo sapiens) (UniProt P37231)
assay-method-text: Effective concentration for human peroxisome proliferator-activated receptor gamma
quantity: EC50 (µM)

structure_smiles=CCO[C@@H](Cc1ccc(OCc2ccc(COc3ccc(C[C@H](OCC)C(=O)O)cc3)cc2)cc1)C(=O)O target_desc="Peroxisome proliferator-activated receptor gamma (Homo sapiens) (UniProt P37231)" quantity=EC50 measured=14

P: CCO[C@@H](Cc1ccc(O/C=C\Oc2ccc(C[C@@H](OCC)C(=O)O)cc2)cc1)C(=O)O
Q: CCO[C@@H](Cc1ccc(OC/C=C(/C)C#Cc2ccccc2)cc1)C(=O)O
Field: lower EC50 | Options: P / Q Pick one and reply with its label. Q
(Q: 0.6 µM, P: 15 µM)
